# Measured target: Serine/threonine-protein kinase PAK 4 (Homo sapiens, UniProt O96013)
# Sequence (O96013 whole entry): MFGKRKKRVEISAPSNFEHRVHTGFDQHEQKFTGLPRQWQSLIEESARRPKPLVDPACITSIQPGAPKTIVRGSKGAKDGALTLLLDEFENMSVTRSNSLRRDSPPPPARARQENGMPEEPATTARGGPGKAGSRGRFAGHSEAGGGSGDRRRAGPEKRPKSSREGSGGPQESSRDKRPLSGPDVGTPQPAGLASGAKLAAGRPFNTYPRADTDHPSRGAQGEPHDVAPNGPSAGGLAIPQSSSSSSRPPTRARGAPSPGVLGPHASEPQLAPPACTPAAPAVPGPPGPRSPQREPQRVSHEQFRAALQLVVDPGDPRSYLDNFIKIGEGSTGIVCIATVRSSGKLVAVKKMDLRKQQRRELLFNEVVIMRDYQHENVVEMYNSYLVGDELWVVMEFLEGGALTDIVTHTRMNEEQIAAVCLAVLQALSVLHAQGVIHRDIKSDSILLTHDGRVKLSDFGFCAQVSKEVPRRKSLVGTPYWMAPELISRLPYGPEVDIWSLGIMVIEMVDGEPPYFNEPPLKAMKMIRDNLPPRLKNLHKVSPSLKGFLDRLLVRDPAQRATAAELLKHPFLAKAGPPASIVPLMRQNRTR
pIC50: −log10 of the molar value.
Recorded metric: pIC50

Value lookup for pIC50; key = CN1CCN(c2ccc(OC(F)(F)F)c(Nc3ncc4c(n3)-c3c(c(C(N)=O)nn3CCO)CC4)c2)CC1 [ONVANSERTIB]
< 5.00

###

# Method description: Inhibition of PDGFR assessed as [33P]gamma-ATP incorporation into substrate after 60 mins by gamma counting
pIC50: −log10 of the molar value.
Recorded metric: pIC50

Value lookup for pIC50; key = CN1CCN(c2ccc(OC(F)(F)F)c(Nc3ncc4c(n3)-c3c(c(C(N)=O)nn3CCO)CC4)c2)CC1
< 5.00

###

# Method description: Half life in overnight fasted CD1 nu/nu mouse at 10 mg/kg, iv
# Format: ADME, organism-based
# Design: dose 10 mg/kg, route intravenous
# Run conditions: in vivo
Recorded metric: half-life (min)
Kindly provide the numeric value in min only, without the unit symbol.

Value lookup for half-life; key = CN1CCN(c2ccc(OC(F)(F)F)c(Nc3ncc4c(n3)-c3c(c(C(N)=O)nn3CCO)CC4)c2)CC1.Cl
53.4

###

# Measured target: Eukaryotic translation initiation factor 2-alpha kinase 3 (Homo sapiens, UniProt Q9NZJ5)
# Sequence (Q9NZJ5 whole entry): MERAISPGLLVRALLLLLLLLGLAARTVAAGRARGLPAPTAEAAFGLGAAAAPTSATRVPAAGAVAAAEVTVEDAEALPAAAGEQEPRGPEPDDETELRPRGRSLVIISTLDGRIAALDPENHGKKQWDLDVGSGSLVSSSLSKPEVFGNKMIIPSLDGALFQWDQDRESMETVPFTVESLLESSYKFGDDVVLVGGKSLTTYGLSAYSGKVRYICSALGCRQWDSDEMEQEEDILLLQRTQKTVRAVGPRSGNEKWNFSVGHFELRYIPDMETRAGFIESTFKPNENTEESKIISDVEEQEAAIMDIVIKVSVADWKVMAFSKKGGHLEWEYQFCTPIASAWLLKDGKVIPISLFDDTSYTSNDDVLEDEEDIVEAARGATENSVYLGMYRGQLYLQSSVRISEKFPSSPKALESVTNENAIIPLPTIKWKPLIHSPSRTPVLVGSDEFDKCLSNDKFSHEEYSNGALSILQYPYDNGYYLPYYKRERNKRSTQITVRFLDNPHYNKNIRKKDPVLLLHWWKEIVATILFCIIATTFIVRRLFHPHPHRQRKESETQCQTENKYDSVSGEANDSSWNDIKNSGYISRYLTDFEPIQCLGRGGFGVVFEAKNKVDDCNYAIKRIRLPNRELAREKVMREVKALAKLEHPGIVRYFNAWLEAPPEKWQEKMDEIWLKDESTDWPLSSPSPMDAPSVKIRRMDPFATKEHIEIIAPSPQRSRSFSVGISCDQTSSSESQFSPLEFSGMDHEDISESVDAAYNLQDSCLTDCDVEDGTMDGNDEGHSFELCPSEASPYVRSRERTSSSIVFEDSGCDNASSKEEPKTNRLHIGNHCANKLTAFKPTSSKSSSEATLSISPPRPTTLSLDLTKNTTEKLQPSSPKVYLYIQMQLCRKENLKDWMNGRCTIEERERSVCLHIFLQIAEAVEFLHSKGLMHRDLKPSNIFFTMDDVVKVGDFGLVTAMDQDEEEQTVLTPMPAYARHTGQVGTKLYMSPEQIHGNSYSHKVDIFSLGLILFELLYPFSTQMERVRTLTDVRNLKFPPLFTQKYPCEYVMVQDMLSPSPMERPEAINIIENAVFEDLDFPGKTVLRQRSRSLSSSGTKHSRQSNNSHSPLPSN
pIC50: −log10 of the molar value.
Recorded metric: pIC50

Value lookup for pIC50; key = CN1CCN(c2ccc(OC(F)(F)F)c(Nc3ncc4c(n3)-c3c(c(C(N)=O)nn3CCO)CC4)c2)CC1
< 5.00

###

# Measured target: Tyrosine-protein kinase JAK3 (Homo sapiens, UniProt P52333)
# Sequence (P52333 whole entry): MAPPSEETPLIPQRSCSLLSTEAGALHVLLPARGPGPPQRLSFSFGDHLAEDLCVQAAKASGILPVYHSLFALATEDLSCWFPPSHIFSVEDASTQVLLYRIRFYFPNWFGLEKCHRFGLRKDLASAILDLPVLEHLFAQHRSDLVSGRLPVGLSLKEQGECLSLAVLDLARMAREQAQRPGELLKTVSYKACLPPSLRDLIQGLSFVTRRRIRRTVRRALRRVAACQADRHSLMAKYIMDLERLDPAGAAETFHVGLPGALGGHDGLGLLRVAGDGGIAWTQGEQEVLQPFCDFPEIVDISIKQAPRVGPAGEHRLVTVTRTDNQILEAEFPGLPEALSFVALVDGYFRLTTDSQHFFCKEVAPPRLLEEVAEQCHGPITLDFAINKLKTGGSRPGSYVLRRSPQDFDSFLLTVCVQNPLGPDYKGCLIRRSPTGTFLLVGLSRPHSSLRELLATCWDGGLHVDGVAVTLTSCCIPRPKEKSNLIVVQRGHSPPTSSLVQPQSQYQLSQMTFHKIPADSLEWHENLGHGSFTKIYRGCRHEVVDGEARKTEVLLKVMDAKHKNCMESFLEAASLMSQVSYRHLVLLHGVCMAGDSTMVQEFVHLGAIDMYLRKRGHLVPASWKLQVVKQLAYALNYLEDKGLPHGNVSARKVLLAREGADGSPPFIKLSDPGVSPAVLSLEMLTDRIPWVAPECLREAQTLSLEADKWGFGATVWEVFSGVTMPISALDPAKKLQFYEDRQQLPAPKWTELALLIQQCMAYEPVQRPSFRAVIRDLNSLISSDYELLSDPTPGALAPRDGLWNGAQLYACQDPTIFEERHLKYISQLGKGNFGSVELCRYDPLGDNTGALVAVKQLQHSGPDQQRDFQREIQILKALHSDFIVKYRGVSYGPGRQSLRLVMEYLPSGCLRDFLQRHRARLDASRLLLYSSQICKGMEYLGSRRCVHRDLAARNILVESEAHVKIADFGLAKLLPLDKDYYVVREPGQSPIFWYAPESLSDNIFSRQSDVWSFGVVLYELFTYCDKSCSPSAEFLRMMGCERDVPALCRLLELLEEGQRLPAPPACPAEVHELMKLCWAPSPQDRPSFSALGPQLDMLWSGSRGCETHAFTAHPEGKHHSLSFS
# Method description: Inhibition of JAK3 assessed as [33P]gamma-ATP incorporation into substrate after 60 mins by gamma counting
pIC50: −log10 of the molar value.
Recorded metric: pIC50

Value lookup for pIC50; key = CN1CCN(c2ccc(OC(F)(F)F)c(Nc3ncc4c(n3)-c3c(c(C(N)=O)nn3CCO)CC4)c2)CC1
< 5.00

Data origin: ChEMBL document CHEMBL1773059
